biological target: IRAK4 (Homo sapiens, UniProt Q9NWZ3); assay: PBMC degradation assay (western blot, % IRAK4 degraded after 4 hours); format: cell-based; conditions: human PBMCs
Sequence (Q9NWZ3 whole entry): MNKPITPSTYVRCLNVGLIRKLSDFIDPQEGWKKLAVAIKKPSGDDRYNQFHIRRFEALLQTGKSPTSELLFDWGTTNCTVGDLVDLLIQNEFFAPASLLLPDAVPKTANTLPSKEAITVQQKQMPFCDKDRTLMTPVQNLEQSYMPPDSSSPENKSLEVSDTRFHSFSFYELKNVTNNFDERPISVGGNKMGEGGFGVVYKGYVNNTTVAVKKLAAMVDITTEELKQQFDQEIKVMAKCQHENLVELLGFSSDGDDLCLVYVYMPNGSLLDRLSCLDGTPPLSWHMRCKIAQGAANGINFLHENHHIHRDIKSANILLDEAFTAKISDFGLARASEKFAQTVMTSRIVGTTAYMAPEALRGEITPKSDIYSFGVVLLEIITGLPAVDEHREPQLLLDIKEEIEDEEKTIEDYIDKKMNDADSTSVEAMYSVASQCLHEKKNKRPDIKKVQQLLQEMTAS
metric name: PBMC % IRAK4 Degradation

Worked cases, PBMC % IRAK4 Degradation given:
NC(=O)c1nn(-c2ccc(C(=O)NCCOCCNC(=O)COc3cccc4c3C(=O)N(C3CCC(=O)NC3=O)C4=O)cc2)cc1NC(=O)c1coc(-c2ccnc(NCC(F)(F)F)c2)n1 (centres unmarked) [I-110] | A (>50% degradation)
NC(=O)c1nn(-c2ccc(C(=O)NCCCNC(=O)COc3cccc4c3C(=O)N(C3CCC(=O)NC3=O)C4=O)cc2)cc1NC(=O)c1coc(-c2ccnc(NCC(F)(F)F)c2)n1 (centres unmarked) [I-112] | A (>50% degradation)
NC(=O)c1nn(C2CCN(C(=O)COCCOCCOCCNc3cccc4c3C(=O)N(C3CCC(=O)NC3=O)C4=O)CC2)cc1NC(=O)c1coc(-c2ccnc(NCC(F)(F)F)c2)n1 (centres unmarked) [I-152] | C (<20% degradation)
NC(=O)c1nn(-c2ccc(CNCCOCCOCCNc3cccc4c3C(=O)N(C3CCC(=O)NC3=O)C4=O)cc2)cc1NC(=O)c1coc(-c2ccnc(NCC(F)(F)F)c2)n1 (centres unmarked) [I-171] | A (>50% degradation)

Let us move to another entry and its PBMC % IRAK4 Degradation.
Query: Suppose we examine the compound NC(=O)c1nn(C2CCN(C(=O)NCCOCCOCCNc3cccc4c3C(=O)N(C3CCC(=O)NC3=O)C4=O)CC2)cc1NC(=O)c1coc(-c2ccnc(NCC(F)(F)F)c2)n1 (centres unmarked) [I-145] ; what PBMC % IRAK4 Degradation value has been reported?
Reply: C (<20% degradation)

====

assay: Pharmacokinetics in CD-1 mice (plasma concentrations, PK parameters); type: in vivo; settings: CD-1, mouse, plasma, iv, 2 mg/kg, mouse (CD1) iv 2 mg/kg; 1 h; individual Mouse 1-3; read-out: Concentration
metric name: concentration at 1 h (ng/mL)
One number for each entry, in ng/mL.

O=C1CCC(N2C(=O)c3cccc(NCCOCCOCCNCc4ccc(-n5cc(NC(=O)c6coc(-c7ccnc(NCC8CC8)c7)n6)c(C(F)F)n5)cc4)c3C2=O)C(=O)N1 (centres unmarked) | 220

Query: Fill in: concentration at 1 h of NC(=O)c1nn(-c2ccc(C(=O)NCCCCCNCCNc3cccc4c3C(=O)N(C3CCC(=O)NC3=O)C4=O)cc2)cc1NC(=O)c1coc(-c2ccnc(NCC(F)(F)F)c2)n1 (centres unmarked) is ___
Reply: 34.3

====

experiment: Pharmacokinetics in Sprague Dawley rats (plasma and brain concentrations, PK parameters); type: in vivo; conditions: Sprague Dawley, rat, brain homogenate, iv, 3 mg/kg, Rat (Sprague Dawley) iv 3 mg/kg (IVB); brain homogenate 1:2 in PBS; 0.083 h; Group 1, Group 2; read-out: brain Detected Conc.
metric name: concentration at 0.083 h (ng/mL)
One number for each entry, in ng/mL.

Query: Query (compound): O=C1CCC(N2C(=O)c3cccc(NCCOCCOCCNCc4ccc(-n5cc(NC(=O)c6coc(-c7ccnc(NCC8CC8)c7)n6)c(C(F)F)n5)cc4)c3C2=O)C(=O)N1 (stereo not shown) ; field requested: concentration at 0.083 h
Reply: 17.2
